System: A2780/Taxol
Test: Cytotoxicity against human A2780/Taxol cells assessed survival rate at 10 uM incubated for 48 hrs by MTT assay
Assay type: functional
Doc: threshold 90% (exclusive). Items with Cell survival rate beneath it return Satisfied; others return Not satisfied.

>>> assigned_category("COc1ccc(Cc2c(C)c3ccc(OC(C)C)c(COC(=O)Cc4cc(OC)c(OC)c(OC)c4)c3oc2=O)cc1")
"Not satisfied"
>>> assigned_category("COc1cc(CC(=O)OCc2c(OC(C)C)ccc3c(C)c(C)c(=O)oc23)cc(OC)c1OC")
"Not satisfied"
>>> assigned_category("Cc1c(Cc2ccccc2)c(=O)oc2c(COC(=O)c3ccccc3)c(OC(C)C)ccc12")
"Satisfied"
>>> assigned_category("COc1cc(CC(=O)OCc2c(OC(C)C)ccc3c(C)c(Cc4ccc(C#N)cc4)c(=O)oc23)cc(OC)c1OC")
"Satisfied"
>>> assigned_category("COc1cc(CC(=O)OCc2c(OC(C)C)ccc3c(C)c(CCc4ccccc4)c(=O)oc23)cc(OC)c1OC")
"Not satisfied"
>>> assigned_category("COc1cc(CC(=O)OCc2c(OC(C)C)ccc3c(C)c(Cc4ccccc4)c(=O)oc23)cc(OC)c1OC")
"Satisfied"
>>> assigned_category("COc1cc(CC(=O)OCc2c(OC(C)C)ccc3c(C)cc(=O)oc23)cc(OC)c1OC")
"Not satisfied"
>>> assigned_category("COc1cc(CC(=O)OCc2c(OC(C)C)ccc3c(C)c(C(C)C)c(=O)oc23)cc(OC)c1OC")
"Not satisfied"
>>> assigned_category("CCc1cc(=O)c2ccc(OC(C)C)c(CNC(=O)Cc3cc(OC)c(OC)c(OC)c3)c2o1")
"Not satisfied"
>>> assigned_category("COc1ccc(/C=C/C(=O)OCc2c(OC(C)C)ccc3c(C)c(Cc4ccccc4)c(=O)oc23)cc1")
"Satisfied"

Inquiry: # check: Cell survival rate < 90% for `COc1cccc(Cc2c(C)c3ccc(OC(C)C)c(COC(=O)Cc4cc(OC)c(OC)c(OC)c4)c3oc2=O)c1`
Reply text: Not satisfied

Inquiry: Threshold test, Cell survival rate < 90%: `COc1cc(CC(=O)OCc2c(OC(C)C)ccc3c(C)c(-c4ccccc4)c(=O)oc23)cc(OC)c1OC`
Reply text: Not satisfied

Inquiry: Lab log: compare recorded Cell survival rate with 90%; is it strictly lower for `Cc1cc(=O)oc2c(C(=O)Nc3ccc(OC(F)(F)F)cc3)c(OC(C)C)ccc12` ?
Reply text: Satisfied

Inquiry: Please state whether Cell survival rate is below 90% for `Cc1c(Cc2ccccc2)c(=O)oc2c(COC(=O)Cc3ccc(F)cc3)c(OC(C)C)ccc12`
Reply text: Not satisfied

Inquiry: Identify whether the compound `COc1cc(CC(=O)OCc2c(OC(C)C)ccc3c(C)c(Cc4ccc(C(F)(F)F)cc4)c(=O)oc23)cc(OC)c1OC` records Cell survival rate below 90%.
Reply text: Satisfied

====

Test: Stability in mouse plasma assessed as parent compound remaining measured at 30 mins by LC-MS/MS analysis
Assay type: ADME, cell-free
Run Parameters: read-out: Stability
Parameter: remaining at 0.5 h (%)
// note: answer is a bare numeric in %

Data point: `COc1cc(CC(=O)OCc2c(OC(C)C)ccc3c(C)c(Cc4ccccc4)c(=O)oc23)cc(OC)c1OC` ; remaining at 0.5 h = 0.72

====

Recorded pIC50 values for a group of molecules are listed next.
Test system: A2780/Taxol
Test: Reversal of multi-drug resistance in human A2780/Taxol cells incubated for 48 hrs by MTT assay
Assay type: functional, cell-based
Here pIC50 is given on a logarithmic scale as minus log10 of the concentration in mol/L.

Check out these entries, answers already filled in.
>>> value_observed("Cc1cc(=O)oc2c(C(=O)Nc3ccc(OC(F)(F)F)cc3)c(OC(C)C)ccc12")
6.50
>>> value_observed("COc1cc(CC(=O)OCc2c(OC(C)C)ccc3c(C)c(Cc4ccccc4F)c(=O)oc23)cc(OC)c1OC")
7.14
>>> value_observed("COc1ccc(/C=C/C(=O)OCc2c(OC(C)C)ccc3c(C)c(Cc4ccc(F)cc4)c(=O)oc23)cc1")
6.31
>>> value_observed("CCc1cc(=O)c2ccc(OC(C)C)c(CNc3cc(OC)c(OC)c(OC)c3)c2o1")
6.84
>>> value_observed("Cc1c(Cc2ccccc2)c(=O)oc2c(COC(=O)c3ccccc3)c(OC(C)C)ccc12")
7.21
>>> value_observed("COc1cc(CC(=O)OCc2c(OC(C)C)ccc3c(C)c(Cc4ccc(F)cc4)c(=O)oc23)cc(OC)c1OC")
7.68
>>> value_observed("COc1ccc(Cc2c(C)c3ccc(OC(C)C)c(COC(=O)Cc4cc(OC)c(OC)c(OC)c4)c3oc2=O)cc1")
7.03
>>> value_observed("CCOc1ccc2c(=O)cc(CC)oc2c1CNC(=O)/C=C/c1ccc(OC)cc1")
7.54
>>> value_observed("COc1cc(CC(=O)OCc2c(OC(C)C)ccc3c(C)c(Cc4ccc(C#N)cc4)c(=O)oc23)cc(OC)c1OC")
7.06
>>> value_observed("COc1cc(CCC(=O)OCc2c(OC(C)C)ccc3c(C)c(Cc4ccccc4)c(=O)oc23)cc(OC)c1OC")
7.28

Sample `CC(=O)O[C@H]1C(=O)[C@@]2(C)[C@H]([C@H](OC(=O)c3ccccc3)[C@]3(O)C[C@H](OC(=O)[C@H](O)[C@@H](NC(=O)c4ccccc4)c4ccccc4)C(C)=C1C3(C)C)[C@]1(OC(C)=O)CO[C@@H]1C[C@@H]2O` ; pIC50 observed: 5.35

In plain terms, `COc1cc(CC(=O)OCc2c(OC(C)C)ccc3c(C)c(CCc4ccccc4)c(=O)oc23)cc(OC)c1OC` has a documented pIC50 of 7.06

The molecule listed as `COc1ccc(/C=C/C(=O)OCc2c(OC(C)C)ccc3c(C)c(Cc4ccc(C(F)(F)F)cc4)c(=O)oc23)cc1` shows pIC50 equal to 6.20

response.value for `Cc1c(Cc2ccccc2)c(=O)oc2c(COC(=O)Cc3ccc(F)cc3)c(OC(C)C)ccc12` (field: pIC50) = 7.17

Reported pIC50 for `CCc1cc(=O)c2ccc(OC(C)C)c(CNC(=O)/C=C/c3ccc(OC)cc3)c2o1` was 7.51

Sure, the documented pIC50 for `COc1cc(CC(=O)OCc2c(OC(C)C)ccc3c(C)cc(=O)oc23)cc(OC)c1OC` is 6.97

====

This section presents compounds with their documented remaining at 1 h values.
Test: Stability in human microsomal fraction preincubated for 10 mins followed by NADPH addition and measured upto 60 mins by LC-MS/MS analysis
Format: ADME, microsomes, Microsome
Run Parameters: time < 70 min, read-out: Stability
Kindly provide the numeric value in % only, without the unit symbol.

>>> value_observed("COc1cc(CC(=O)OCc2c(OC(C)C)ccc3c(C)c(Cc4ccccc4)c(=O)oc23)cc(OC)c1OC")
0.877
>>> value_observed("CCOc1ccc2c(=O)cc(CC)oc2c1CNC(=O)/C=C/c1ccc(OC)cc1")
11.8
>>> value_observed("CCc1cc(=O)c2ccc(OC(C)C)c(CNC(=O)/C=C/c3ccc(OC)cc3)c2o1")
29.4

Alright, here's another compound for you.
Looking up `CCOc1ccc2c(C)cc(=O)oc2c1CNC(=O)/C=C/c1ccc(OC)cc1` , I found its remaining at 1 h recorded as 44.3

====

Test: Stability in water assessed as parent compound remaining measured at 30 mins by LC-MS/MS analysis
Type: physicochemical
Run Parameters: read-out: Stability
Parameter: remaining at 0.5 h
Please give the number followed by its unit.

The compound listed as `COc1cc(CC(=O)OCc2c(OC(C)C)ccc3c(C)c(Cc4ccccc4)c(=O)oc23)cc(OC)c1OC` shows remaining at 0.5 h equal to 89.1%

====

Some compounds, each annotated with its measured IC50.
Test system: A2780/Taxol
Test: Reversal of multi-drug resistance in human A2780/Taxol cells incubated for 48 hrs by MTT assay
Assay type: functional, cell-based
Kindly answer with a numeric value in nM, unit omitted.

Below are worked cases with known answers.
>>> value_observed("COc1cc(NC(=O)c2c(OC(C)C)ccc3c(C)cc(=O)oc23)cc(OC)c1OC")
1590
>>> value_observed("Cc1c(Cc2ccc(C(F)(F)F)cc2)c(=O)oc2c(COC(=O)/C=C/c3ccccc3)c(OC(C)C)ccc12")
401
>>> value_observed("Cc1c(Cc2ccccc2)c(=O)oc2c(COC(=O)c3ccc(F)cc3)c(OC(C)C)ccc12")
86
>>> value_observed("COc1ccc(/C=C/C(=O)OCc2c(OC(C)C)ccc3c(C)c(Cc4ccc(OC)cc4)c(=O)oc23)cc1")
491
>>> value_observed("CCOc1ccc2c(C)cc(=O)oc2c1CNC(=O)/C=C/c1ccc(OC)cc1")
29

Quick note, IC50 for `COc1ccc(/C=C/C(=O)OCc2c(OC(C)C)ccc3c(C)c(Cc4ccccc4)c(=O)oc23)cc1` landed at 233

For reference, reported IC50 for `COc1cc(CC(=O)OCc2c(OC(C)C)ccc3c(C)c(C(C)C)c(=O)oc23)cc(OC)c1OC` stands at 36

// IC50 value for `CCc1c(C)c2ccc(OC(C)C)c(COC(=O)Cc3cc(OC)c(OC)c(OC)c3)c2oc1=O` : 69

Given item `COc1cc(CC(=O)OCc2c(OC(C)C)ccc3c(C)c(Cc4cccc(F)c4)c(=O)oc23)cc(OC)c1OC` , the value recorded as its IC50 is 86

Lookup result for `CCc1cc(=O)c2ccc(OC(C)C)c(CNC(=O)Cc3cc(OC)c(OC)c(OC)c3)c2o1` ; measured IC50: 20

Input `COc1cc(C(=O)OCc2c(OC(C)C)ccc3c(C)c(CCc4ccccc4)c(=O)oc23)cc(OC)c1OC` . Output IC50: 31

IC50 measured on `CCc1cc(=O)c2ccc(OC(C)C)c(CNC(=O)/C=C/c3ccccc3)c2o1` = 192

Reported IC50 ( `Cc1cc(=O)oc2c(CNC(=O)/C=C/c3ccccc3)c(OC(C)C)ccc12` ) = 294

compound `CCOc1ccc2c(C)c(Cc3ccc(OC)cc3)c(=O)oc2c1COC(=O)/C=C/c1ccc(OC)cc1` , IC50 observed: 491

Notebook: `COc1cc(CC(=O)OCc2c(OC(C)C)ccc3c(C)c(-c4ccccc4)c(=O)oc23)cc(OC)c1OC` , IC50 read as 43

# compound `COc1cc(C(=O)OCc2c(OC(C)C)ccc3c(C)c(Cc4ccccc4)c(=O)oc23)cc(OC)c1OC` ; its IC50 = 85

Record summary for `COc1cc(CC(=O)OCc2c(OC(C)C)ccc3c(C)c(Cc4ccc(C(F)(F)F)cc4)c(=O)oc23)cc(OC)c1OC` : reported IC50 = 94

Noted for `COc1cc(CC(=O)OCc2c(OC(C)C)ccc3c(C)c(Cc4ccccc4)c(=O)oc23)cc(OC)c1OC` : its IC50 reads 10
